// values below are reported protein stability index
B1: HDAC6 (parent)
chain: DLMETTQYMNEGELRVLADTYDSV

# Variants of: B1
# assay-method-text: protein stability index of a GFP-peptide fusion (GPS, HEK-293T) (PSI 1-6); higher = more stable;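 further: lentivirally expressed fusions sorted by FACS into six bins by GFP to DsRed ratio, PSI derived from sequencing read proportions per bin multiplied by bin number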
# study-conditions: c terminus: a fixed tail appended

Prompt line: Could you tell me which protein stability index is on file for `L2P` ?
Response line: 4.8

Prompt line: What do we get for `D1H` ?
Response line: 1.53

Prompt line: Then `G12N` ?
Response line: 4.08

Prompt line: And what about the variant `T6G` ?
Response line: 3.57

Prompt line: Also check `V16F`
Response line: 3.61
